Reference source for all entries: the supplement of paper PMC10567573

Kindly state protein stability index for each of the entries shown.
B1: DVL3 (parent)
chain: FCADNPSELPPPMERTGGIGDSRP

variants of: B1; assay: protein stability index of a GFP-peptide fusion (GPS, HEK-293T) (PSI 1-6); higher = more stable; details: c terminus: a fixed tail appended;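 also: lentivirally expressed fusions sorted by FACS into six bins by GFP to DsRed ratio, PSI derived from sequencing read proportions per bin multiplied by bin number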
Hey, just send me the number, nothing else.

input: For the variant FCADNESELPPPMERTGGIGDSRP [P6E] , give its reported protein stability index.
output: 4.64

input: Please report the measured protein stability index for FCADNPSELPPDMERTGGIGDSRP [P12D]
output: 5.2

input: Identify measured protein stability index associated with FCADNPSELPPPMERTGGISDSRP [G20S]
output: 4.4

input: Please report the measured protein stability index for FCADNPSELNPPMERTGGIGDSRP [P10N]
output: 4.54

input: Give the measured protein stability index for FCAHNPSELPPPMERTGGIGDSRP [D4H]
output: 4.27

input: # return recorded protein stability index for input FCADNPSELPPPMERGGGIGDSRP [T16G]
output: 4.45

input: Determine its reported protein stability index: QCADNPSELPPPMERTGGIGDSRP [F1Q]
output: 4.83

input: Give the reported protein stability index for this variant. FCADNPSRLPPPMERTGGIGDSRP [E8R]
output: 3.05

input: Return value of protein stability index for input FCADNPSELPPPNERTGGIGDSRP [M13N] , no commentary.
output: 4.77

input: Consider the variant FCADNPSELPPRMERTGGIGDSRP [P12R] . State its measured protein stability index.
output: 3.93

input: Identify measured protein stability index associated with FAADNPSELPPPMERTGGIGDSRP [C2A]
output: 4.77

input: State its protein stability index for this variant: FCADNPSHLPPPMERTGGIGDSRP [E8H]
output: 3.95

input: Find the measured protein stability index of FCADNPSELPPPMERTGGIGLSRP [D21L] and report it.
output: 3.48

input: Kindly indicate its recorded protein stability index. Item: FCADNPSELPPPMERTDGIGDSRP [G17D]
output: 4.61

input: For FCADHPSELPPPMERTGGIGDSRP [N5H] , write its protein stability index.
output: 3.81

input: Supply protein stability index value. Item: FCADNPSELPPPAERTGGIGDSRP [M13A]
output: 5.31

input: Return value of protein stability index for input FCADNPSELPPPMERTGGIGDERP [S22E] , no commentary.
output: 5.23

input: Consider the variant FCADNPSELPPPMHRTGGIGDSRP [E14H] . State its measured protein stability index.
output: 4.08

input: Give the reported protein stability index for this variant. FCADNPSELPPPMERTGGIGASRP [D21A]
output: 4.36

input: Input FCADNPSELPPPMYRTGGIGDSRP [E14Y] , output reported protein stability index.
output: 3.13

input: Identify the reported protein stability index for the following entry. FCSDNPSELPPPMERTGGIGDSRP [A3S]
output: 4.81

input: Fill in protein stability index for record FCADNMSELPPPMERTGGIGDSRP [P6M]
output: 3.8

input: For the variant FCADNPSELPPPMERFGGIGDSRP [T16F] , give its reported protein stability index.
output: 3.95

input: Give me measured protein stability index, please, for this variant: FCADNPSELPHPMERTGGIGDSRP [P11H]
output: 4.43

input: Specify reported protein stability index for the variant shown: FCADNPSECPPPMERTGGIGDSRP [L9C]
output: 4.79

input: # return recorded protein stability index for entry FCADNPSELPWPMERTGGIGDSRP [P11W]
output: 3.64

input: Give a short answer stating reported protein stability index for FCADNPSELPPPMEKTGGIGDSRP [R15K] .
output: 4.45

input: Look up protein stability index of FCADNPSELPPPMERTRGIGDSRP [G17R] and report it.
output: 4.62

input: Input FCAANPSELPPPMERTGGIGDSRP [D4A] , output reported protein stability index.
output: 4.19

input: Give protein stability index for the following variant: FKADNPSELPPPMERTGGIGDSRP [C2K]
output: 4.68

input: Return protein stability index for the following variant: FCWDNPSELPPPMERTGGIGDSRP [A3W]
output: 3.64

input: Provide only the value of recorded protein stability index for FCEDNPSELPPPMERTGGIGDSRP [A3E]
output: 5.23

input: Indicate the recorded protein stability index value for this variant: FCADNPSFLPPPMERTGGIGDSRP [E8F]
output: 2.6

input: Provide protein stability index value for the following variant: FCADNPSELPPPMERTGGIGDSEP [R23E]
output: 4.95

input: Given the variant FCADNPSELPPPMERTGGIGDSYP [R23Y] , write its reported protein stability index.
output: 4.15

input: Please look at this variant and report its protein stability index: FCADNPSELPPPMERTTGIGDSRP [G17T]
output: 4.48

input: Provide only the value of recorded protein stability index for FCAFNPSELPPPMERTGGIGDSRP [D4F]
output: 3.08

input: Hello, please tell me recorded protein stability index for this one: FCADNPSELPPAMERTGGIGDSRP [P12A]
output: 5.55

input: Retrieve protein stability index measured for FCADNPSELPPPFERTGGIGDSRP [M13F] and print it.
output: 4.6

input: Tell us which protein stability index value is on record for FCADNPSELPPPMERTGGIGDMRP [S22M]
output: 4.09

input: Name the recorded protein stability index of the item FCADNPSELPPPMERTGGIGDSRV [P24V] in your answer.
output: 4.55

input: Please give the documented protein stability index of FCADNPSELPPGMERTGGIGDSRP [P12G]
output: 4.39

input: Respond only with protein stability index recorded for FCADNKSELPPPMERTGGIGDSRP [P6K]
output: 4.33

input: Check the records and state protein stability index for FCADNPSELPPPMERTAGIGDSRP [G17A]
output: 4.51

input: // Input: FCADNPSELPPPMEFTGGIGDSRP [R15F] . Output its protein stability index only.
output: 4.1

input: Tell me measured protein stability index for FCADNPSELPPPMERTGGIGDSHP [R23H] please.
output: 5.02

input: For the variant FCADNPSELPPPMERTGGIGCSRP [D21C] , give its measured protein stability index value.
output: 3.98

input: Return the recorded protein stability index value; entry: FCADNPSELPPPMERTGGSGDSRP [I19S]
output: 5.22

input: Given the variant FDADNPSELPPPMERTGGIGDSRP [C2D] , write its reported protein stability index.
output: 5.46

input: Look up and report measured protein stability index for this entry: FCADNPSELPPPMERRGGIGDSRP [T16R]
output: 4.5

input: Read the entry FCADNPSELPPIMERTGGIGDSRP [P12I] and write its reported protein stability index.
output: 3.76

input: Consider the variant FGADNPSELPPPMERTGGIGDSRP [C2G] . State its measured protein stability index.
output: 4.83

input: Identify measured protein stability index associated with FCVDNPSELPPPMERTGGIGDSRP [A3V]
output: 4.78

input: For the variant FCYDNPSELPPPMERTGGIGDSRP [A3Y] , give its reported protein stability index.
output: 4.49

input: Find the measured protein stability index of FCADNPIELPPPMERTGGIGDSRP [S7I] and report it.
output: 4.19

input: Write down protein stability index measured for item FCADNPSGLPPPMERTGGIGDSRP [E8G]
output: 4.37

input: Supply reported protein stability index belonging to this variant: FCADNPSELPPPMERTGGIGDSVP [R23V]
output: 4.46

input: Give protein stability index for the following variant: FCADNPSELPQPMERTGGIGDSRP [P11Q]
output: 4.54

input: Assign protein stability index to the following record: FCADNPYELPPPMERTGGIGDSRP [S7Y]
output: 3.81

input: Using the record for FCADNPSELKPPMERTGGIGDSRP [P10K] , state its measured protein stability index.
output: 4.37

input: Please give the documented protein stability index of FCADNPSELPPPMERTGGIGDSRE [P24E]
output: 5.45

input: Give the reported protein stability index for this variant. FCADNPSELPPPMKRTGGIGDSRP [E14K]
output: 4.07

input: Retrieve protein stability index measured for FCADNPSELPCPMERTGGIGDSRP [P11C] and print it.
output: 4.33

input: Indicate the recorded protein stability index value for this variant: FCADNPSELMPPMERTGGIGDSRP [P10M]
output: 4.54

input: Report protein stability index, nothing else, for this variant: FCADNPSELPPPMERTGGIGMSRP [D21M]
output: 3.67

input: Name the recorded protein stability index of the variant listed here: FCADNPSELPYPMERTGGIGDSRP [P11Y]
output: 4.23

input: Identify the reported protein stability index for the following entry. FCMDNPSELPPPMERTGGIGDSRP [A3M]
output: 4.48

input: // fetch protein stability index given entry FCADNPSELPPPMERTGSIGDSRP [G18S]
output: 4.64

input: Supply protein stability index value. Item: FCADNPSELPPPMERTGTIGDSRP [G18T]
output: 4.47

input: Tell us which protein stability index value is on record for FCADNPSELPPPCERTGGIGDSRP [M13C]
output: 4.22

input: Check the records and state protein stability index for FCADNPSELPPPMERTGGIGDSRL [P24L]
output: 3.96

input: Recall and state the measured protein stability index for FCADNPSELPDPMERTGGIGDSRP [P11D] .
output: 4.74

input: Provide only the value of recorded protein stability index for FCHDNPSELPPPMERTGGIGDSRP [A3H]
output: 4.37

input: Respond only with protein stability index recorded for FCADNPSPLPPPMERTGGIGDSRP [E8P]
output: 4.14

input: Determine from records and report protein stability index for FCADNPSELPPPMERTGHIGDSRP [G18H]
output: 4.34

input: Note protein stability index for the variant shown: FCADNPSELPPVMERTGGIGDSRP [P12V]
output: 4.62

input: State, in one line, measured protein stability index of FCADNPSELPVPMERTGGIGDSRP [P11V]
output: 3.94

input: Indicate its recorded protein stability index; the variant in question is YCADNPSELPPPMERTGGIGDSRP [F1Y]
output: 4.89

input: For the variant FCADNPSELPPPMERTLGIGDSRP [G17L] , report protein stability index.
output: 4.12

input: Return value of protein stability index for input ICADNPSELPPPMERTGGIGDSRP [F1I] , no commentary.
output: 5.05

input: Please report protein stability index for the following variant: FCADNPSELPPPMEETGGIGDSRP [R15E]
output: 5.37

input: Quote protein stability index reported for FCADNPSELPPPMERTGGICDSRP [G20C] please.
output: 4.12

input: State its protein stability index: FCADNPSELPPPMERTGGIGDSGP [R23G]
output: 4.72

input: Please supply the value of reported protein stability index for the item FCADNPRELPPPMERTGGIGDSRP [S7R]
output: 3.58

input: Dear colleague, please send me the reported protein stability index for FCADNPSELPPPMERIGGIGDSRP [T16I] when you can.
output: 3.98

input: For the variant FCADNPSALPPPMERTGGIGDSRP [E8A] , give its measured protein stability index value.
output: 4.36

input: Write down protein stability index measured for item FCADNPSELPPPMERWGGIGDSRP [T16W]
output: 2.55

input: Find the measured protein stability index of FCADNPSELPPPMERCGGIGDSRP [T16C] and report it.
output: 4.07

input: For the variant FCADNQSELPPPMERTGGIGDSRP [P6Q] , give its measured protein stability index value.
output: 4.95

input: Please give the documented protein stability index of FCADNPSELPPYMERTGGIGDSRP [P12Y]
output: 3.63

input: Provide one value: measured protein stability index of FCADNPSELYPPMERTGGIGDSRP [P10Y]
output: 3.74
